// data source = PubChem BioAssay (EPA / NIEHS)

Read-out: Keratin 19 (KRT19), KRT19 (gene 3880)
Assay: LTEA_HepaRG_KRT19: Life Technologies and Expression Analysis (LTEA) Assay for Keratin 19 (KRT19) using HepaRG (AID 2283512)
Settings: mRNA level, 48 h; actives raise or lower the signal
Protocol: LTEA_HepaRG is a cell based, multiplexed-readout assay that uses HepaRG, a human liver cell line, with measurements taken at 48 hours after chemical dosing on a 96-well plate.LTEA_HepaRG_KRT19 is one of 102 assay component(s) measured in the LTEA HepaRG cell culture assay. It is a marker of Cell proliferation, survival, death.Data from the assay component LTEA_HepaRG_KRT19 was analyzed into 1 endpoint. […]
Calls of active or inactive are those of the source. Rule for the calls: active = hit-call score of the fitted dose curve at least 0.9, where 1 is the maximum; inactive = score below 0.9.
The categories you may choose from are active, inactive

Worked examples follow.
itemSmiles | answerLabel
O=C(Nc1ccc(Cl)cc1)Nc1ccc(Cl)c(Cl)c1 | active
CC(C)(O)c1ccc(CNC(=O)c2cccnc2Oc2ccc3nonc3c2)cc1 | inactive
Cc1cc2c(cc1C(F)(F)F)N(C(=O)Nc1ccc(Oc3cccnc3C)nc1)CC2 | inactive
c1ccc2n[nH]nc2c1 | inactive

Okay, next one:
Ask: For `CCOC(=O)O[C@H](C)OC(=O)c1ccc2c(c1)cc(C(=O)NC1CCN(C(C)C)CC1)n2Cc1cc(-c2ccc(Cl)s2)on1` , which call appears in the assay record?
Result: inactive
